test: Antiinflammatory activity in human neutrophils assessed as inhibition of fMLP/CB-induced superoxide generation at 10 ug/mL after 5 mins by spectrophotometric analysis relative to control; assay type: functional; conditions: Neutrophil
Mark Criterion not met for inhibition at 10 µg/mL values under 70%, and Criterion met for everything at or above.

{"Molecule": "COC(=O)c1c(O)ccc2oc3cc(CO)cc(O)c3c(=O)c12", "Label": "Criterion not met"}
{"Molecule": "CC(C)CCC[C@](C)(O)c1ccc(C(=O)O)cc1O", "Label": "Criterion not met"}
{"Molecule": "C/C(=C\\CCC(C)C)c1ccc(CO)cc1O", "Label": "Criterion met"}
{"Molecule": "CC(C)CCC[C@](C)(O)c1ccc(CO)cc1O [(S)-(+)-SYDONOL]", "Label": "Criterion met"}
{"Molecule": "COC(=O)[C@@H]1c2c(oc3cc(CO)cc(O)c3c2=O)C=C[C@H]1O", "Label": "Criterion met"}
{"Molecule": "COC(=O)c1cccc2oc3cc(CO)cc(O)c3c(=O)c12", "Label": "Criterion not met"}
{"Molecule": "Cc1cc(O)cc(Oc2cc(C)cc(O)c2)c1", "Label": "Criterion met"}

====

Examples of compounds with documented IC50 follow.
assay: Antiinflammatory activity in human neutrophils assessed as inhibition of fMLP/CB-induced elastase release after 5 mins by spectrophotometric analysis; format: functional, cell-based; settings: Neutrophil

{"Compound": "CNC(=O)c1cc(Oc2ccc(NC(=O)Nc3ccc(Cl)c(C(F)(F)F)c3)cc2)ccn1 [SORAFENIB]", "IC50, µM": 5.62}
{"Compound": "CC(C)CCC[C@](C)(O)c1ccc(CO)cc1O [(S)-(+)-SYDONOL]", "IC50, µM": 16.4}
{"Compound": "COC(=O)c1c(O)ccc2oc3cc(CO)cc(O)c3c(=O)c12 [SYDOWININ B]", "IC50, µM": 12.6}

====

experiment: Antiinflammatory activity in human neutrophils assessed as inhibition of fMLP/CB-induced superoxide generation at 10 ug/mL after 5 mins by spectrophotometric analysis relative to control; type: functional; conditions: Neutrophil

{"Compound": "CNC(=O)c1cc(Oc2ccc(NC(=O)Nc3ccc(Cl)c(C(F)(F)F)c3)cc2)ccn1", "inhibition at 10 µg/mL": "70.9%"}
{"Compound": "C/C(=C\\CCC(C)CO)c1ccc(CO)cc1O (stereo not drawn)", "inhibition at 10 µg/mL": "71.7%"}
{"Compound": "CO[C@@](C)(CCCC(C)C)c1ccc(CO)cc1O [(7S)-(+)-7-O-METHYLSYDONOL]", "inhibition at 10 µg/mL": "69%"}

# credit: ChEMBL document CHEMBL2396565
